tested on: Amaranthus viridis; test: Test Example 14: herbicidal effect test by foliage treatment in upland field; format: in vivo; details: 7 days after sowing, 120 g/10a, 14 days after treatment
This section presents molecules with their documented herbicidal effect, Amaranthus viridis values.
Write the answer as a number in %, unit excluded.

The following molecules have reported results that may help.
| structure | uom | herbicidal effect, Amaranthus viridis |
| --- | --- | --- |
| CC(C)N(C(=O)n1cnn(S(=O)(=O)C2CCCCC2)c1=O)c1cccc(F)c1 | % | 90 |
| CC(C)N(C(=O)n1cnn(S(=O)(=O)C2CCCCC2)c1=O)c1ccc(C(F)(F)F)cc1F | % | 60 |
| Cc1cc(Cl)ccc1N(C(=O)n1cnn(S(=O)(=O)C2CC2)c1=O)C(C)C | % | 90 |
| CC(C)N(C(=O)n1cnn(S(=O)(=O)C2CCC2)c1=O)c1ccc(F)cc1F | % | 90 |
| CC(C)N(C(=O)n1cnn(S(=O)(=O)c2ccc(C(C)(C)C)cc2)c1=O)c1c(F)cc(F)cc1F | % | 30 |

Provide herbicidal effect, Amaranthus viridis, system Amaranthus viridis, entry CC(C)N(C(=O)n1cnn(S(=O)(=O)C(C)C)c1=O)c1ccc(Cl)cc1Br
60

Under Amaranthus viridis: report herbicidal effect, Amaranthus viridis of CC(C)N(C(=O)n1cnn(S(=O)(=O)c2cccs2)c1=O)c1ccc(F)c(F)c1F .
60

Tell me its herbicidal effect, Amaranthus viridis on Amaranthus viridis: CCS(=O)(=O)n1ncn(C(=O)N(c2ccc(F)c(F)c2F)C(C)C)c1=O
90
